src = ChEMBL document CHEMBL5512682

test-summary: AUC (0 to t) in mouse at 2 mg/kg, po
Format: ADME, organism-based
measurement-parameters: in vivo
measured-property: AUC(0-t)

Cc1cc(-n2ncc(CN3C[C@@H](c4ccc5c(c4C)COC5=O)N[C@@H](C)C3)n2)ncc1C#N	14 µM·h

###

test-summary: Cmax in dog at 5 mg/kg, po
Format: ADME, organism-based, Canis lupus familiaris
measurement-parameters: in vivo
measured-property: Cmax

Cc1cc(-n2ncc(CN3C[C@@H](c4ccc5c(c4C)COC5=O)N[C@@H](C)C3)n2)ncc1C#N	1900 nM

###

test-summary: Metabolic stability in rat liver microsomes assessed as parent compound remaining at 10 uM measured after 10 mins in presence of NADPH and GSH by UPLC-MS/MS analysis
Format: ADME, Microsome
measurement-parameters: read-out: Stability
measured-property: remaining at 10 min, 10 µM (%)

Cc1c([C@@H](O)CN(C)Cc2ccc(-c3ccc(C#N)c(F)c3)nc2)ccc2c1COC2=O	7
Cc1cc(-c2ncc(CNC[C@H](O)c3ccc4c(c3C)COC4=O)s2)ncc1C#N	33
Cc1cc(-n2cc(CNC[C@H](O)c3ccc4c(c3C)COC4=O)cn2)ncc1C#N	72
Cc1cc(-n2ccc(CNC[C@H](O)c3ccc4c(c3C)COC4=O)n2)ncc1C#N	1
Cc1cc(-n2ncc(CNC[C@H](O)c3ccc4c(c3C)COC4=O)n2)ncc1C#N	94
Cc1cc(-n2cc(CN3CC(O)CC(c4ccc5c(c4C)COC5=O)C3)cn2)ncc1C#N (stereo not given)	50
Cc1c([C@@H](O)CNCc2ccc(-c3ccc(C#N)c(F)c3)nc2)ccc2c1COC2=O	51
Cc1cc(-n2cc(CN3CCO[C@H](c4ccc5c(c4C)COC5=O)C3)cn2)ncc1C#N	60
Cc1cc(-n2cc(CN3C[C@@H](c4ccc5c(c4C)COC5=O)OC(C)(C)C3)cn2)ncc1C#N	56
N#Cc1ccc(-c2ncc3c(n2)CCN(C[C@H](O)c2ccc4c(c2)COC4=O)C3)cc1F	44
Cc1cc(-n2cc(CNC[C@H](O)c3ccc4c(c3C)COC4=O)c(C(F)F)n2)ncc1C#N	1
Cc1cc(-n2ncc(CN3CCN[C@H](c4ccc5c(c4C)COC5=O)C3)n2)ncc1C#N	100
Cc1cc(-n2cc(CN3CCN[C@H](c4ccc5c(c4C)COC5=O)C3)cn2)ncc1C#N	90
Cc1cc(-n2cc(CN3CCCC(c4ccc5c(c4C)COC5=O)C3)cn2)ncc1C#N (stereo not given)	29
Cc1c([C@@H](O)CN2CCc3nc(-c4ccc(C#N)c(F)c4)ncc3C2)ccc2c1COC2=O	96
N#Cc1ccc(-c2ccc3c(c2)CCN(CCc2ccc4c(c2)COC4=O)C3)cc1F	8
Cc1cc(-n2cc(CN3CC(=O)N[C@H](c4ccc5c(c4C)COC5=O)C3)cn2)ncc1C#N	67
Cc1cc(-n2ncc(CN3C[C@@H](c4ccc5c(c4C)COC5=O)N[C@@H](C)C3)n2)ncc1C#N	92
Cc1cc(-n2cc(CN3CC(O)C(c4ccc5c(c4C)COC5=O)C3)cn2)ncc1C#N (stereo not given)	84
Cc1cc(-n2cc(CN3C[C@H](CO)N[C@H](c4ccc5c(c4C)COC5=O)C3)cn2)ncc1C#N	93

###

target-entity: hERG (KCNH2) (Homo sapiens, UniProt Q12809)
Sequence (Q12809 whole entry): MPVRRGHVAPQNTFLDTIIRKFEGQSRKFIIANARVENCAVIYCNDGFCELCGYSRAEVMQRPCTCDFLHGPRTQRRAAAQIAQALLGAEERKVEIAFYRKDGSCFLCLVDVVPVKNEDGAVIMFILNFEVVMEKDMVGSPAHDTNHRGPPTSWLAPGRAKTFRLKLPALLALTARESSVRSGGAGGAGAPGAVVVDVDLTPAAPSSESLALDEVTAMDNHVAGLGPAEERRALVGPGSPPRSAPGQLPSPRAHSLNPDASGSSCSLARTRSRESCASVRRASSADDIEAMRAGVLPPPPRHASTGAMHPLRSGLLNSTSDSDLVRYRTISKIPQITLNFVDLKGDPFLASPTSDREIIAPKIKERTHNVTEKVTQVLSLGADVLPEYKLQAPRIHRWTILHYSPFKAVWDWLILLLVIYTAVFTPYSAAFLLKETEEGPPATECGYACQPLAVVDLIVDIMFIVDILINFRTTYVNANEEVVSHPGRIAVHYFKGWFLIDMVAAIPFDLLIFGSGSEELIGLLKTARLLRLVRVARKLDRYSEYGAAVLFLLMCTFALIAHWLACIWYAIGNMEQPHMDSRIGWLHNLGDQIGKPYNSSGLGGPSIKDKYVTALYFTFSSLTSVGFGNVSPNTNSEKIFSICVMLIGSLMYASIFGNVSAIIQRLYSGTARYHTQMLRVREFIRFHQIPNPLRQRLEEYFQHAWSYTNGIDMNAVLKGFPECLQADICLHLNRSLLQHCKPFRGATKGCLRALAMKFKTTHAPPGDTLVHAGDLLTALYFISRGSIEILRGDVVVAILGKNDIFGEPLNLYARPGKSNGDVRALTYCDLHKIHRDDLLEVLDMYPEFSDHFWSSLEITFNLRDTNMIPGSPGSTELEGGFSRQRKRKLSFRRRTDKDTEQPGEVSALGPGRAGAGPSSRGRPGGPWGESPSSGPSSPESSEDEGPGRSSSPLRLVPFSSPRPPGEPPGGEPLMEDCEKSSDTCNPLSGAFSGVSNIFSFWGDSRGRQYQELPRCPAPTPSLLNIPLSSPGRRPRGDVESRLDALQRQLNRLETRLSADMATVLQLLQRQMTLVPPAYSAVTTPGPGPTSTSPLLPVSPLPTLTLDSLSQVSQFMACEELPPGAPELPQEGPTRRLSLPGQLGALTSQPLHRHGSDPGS
test-summary: Inhibition of human ERG expressed in HEK293 cells at 10 uM incubated for 2 to 5 mins by Manual patch clamp assay relative to control
Format: toxicity, cell-based
measurement-parameters: HEK293 cells expressing hERG, time 2-5 min
This section presents molecules with their documented inhibition at 10 µM values.
measured-property: inhibition at 10 µM (%)

Cc1cc(-n2cnc(CNC[C@H](O)c3ccc4c(c3C)COC4=O)c2)ncc1C#N	72
Cc1cc(-c2ccc(CNC[C@H](O)c3ccc4c(c3C)COC4=O)cn2)ncc1C#N	71
Cc1cc(-n2cc(CNC[C@H](O)c3ccc4c(c3C)COC4=O)c(C(F)F)n2)ncc1C#N	77
